Measured values drawn from patent US20120029002A1 for this set.

system: aorta rings; assay: Vasorelaxant effect in vitro (phenylephrine-contracted rabbit aorta rings); type: cell-based, Rabbits; conditions: Oryctolagus cuniculus; concentration necessary to reduce the height of the phenylephrine-induced contraction of rabbit aorta rings by 50%; organ bath, 37° C., 0.1% DMSO
pIC50: −log10 of the molar value.
MEASURE_NAME: pIC50

1) CC(C)OC(=O)Nc1c(N)nc(-n2nc(Oc3ccccc3F)c3ccccc32)nc1N :: 5.25
2) Nc1nc(-n2nc(Sc3ccccc3F)c3ccccc32)nc(N)c1N :: 5.67

[1] CC(C)OC(=O)Nc1c(N)nc(-n2nc(Sc3ccccc3F)c3ccccc32)nc1N
[2] CC(C)OC(=O)Nc1c(N)nc(-n2nc(Sc3ccccc3F)c3ncccc32)nc1N
Between the two listed entries 1 and 2 , which has its pIC50 at the higher number? Answer by stating the label of the chosen item.
2
(2: 5.84, 1: 5.31)
